# System: Escherichia coli
# assay.procedure: Antibacterial activity against Escherichia coli ATCC 25922 assessed as diameter of growth inhibition zone at 0.5 mg/ml after 24 hrs by disk diffusion assay
# Assay type: functional
Activity calls are given as the source filed them. No cut-off for these calls is given here.
endpoint.name: diameter of the inhibition zone (DIZ)

| compound | diameter of the inhibition zone (DIZ) |
| --- | --- |
| CCN(CC)[c+]1sc2c(s1)C(c1ccc(Cl)cc1)Oc1c(Br)cc(Br)cc1-2.F[B-](F)(F)F (configuration not stated) | inactive |
| CCN(CC)C(=S)SC1C(=O)c2cc(Br)cc(Br)c2OC1c1ccc(Cl)cc1 (configuration not stated) | inactive |
| CCN(CC)C(=S)SC1C(=O)c2ccccc2OC1c1ccc(Cl)cc1 (mixture of isomers) | inactive |
| CCN(CC)C(=S)SC1C(=O)c2cc(Br)ccc2OC1c1ccc(Cl)cc1 (configuration not stated) | inactive |
| CCN(CC)C(=S)SC1C(=O)c2cc(Br)ccc2OC1c1ccc(OC)cc1 (mixture of isomers) | inactive |

Parameters: items (list). Returns: diameter of the inhibition zone (DIZ) for each item.
1. CCN(CC)[c+]1sc2c(s1)C(c1ccc(Cl)cc1)Oc1ccccc1-2.F[B-](F)(F)F (configuration not stated)
2. CCN(CC)C(=S)SC1C(=O)c2cc(I)cc(I)c2OC1c1ccc(Cl)cc1 (configuration not stated)

inactive
inactive
